- Tested On: T1, Recombinant Human DLL4 (delta-like protein 4) (human, UniProt Q9NR61 27-524)
- T1 construct: also called rHuman DLL4; Delta-like 4
- Assay Name: ELISA, DLL4 coated on plate, Fab at 100 nM
Outcome Measure: ELISA Signal-blank (100 nM Fab)

binder="Fab VH5-51_IGHD5-18*01>3_IGHJ4*01 G100K/G104T G24T/S28R/G35V & V3-4_IGLJ1*01 V91L/S96P S52N (Fab, V domains shown, Fab expressed in E. coli; heavy chain vector adds CH1 with His6 and Flag tags, light chain vector adds lambda CL; also called H:KT TRV & L:LP S52N) VH: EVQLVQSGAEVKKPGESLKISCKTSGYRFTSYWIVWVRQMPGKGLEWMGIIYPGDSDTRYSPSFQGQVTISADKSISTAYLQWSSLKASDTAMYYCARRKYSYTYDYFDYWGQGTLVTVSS VL: QTVVTQEPSFSVSPGGTVTLTCGLSSGSVSTSYYPSWYQQTPGQAPRTLIYNTNTRSSGVPDRFSGSILGNKAALTITGAQADDESDYYCLLYMGPGISYVFGTGTKVTVL" outcome_measure="ELISA Signal-blank (100 nM Fab)" measured_value=0.45
